apparent KD of MS2 coat protein values, listed per item
System: MS2 coat protein
Assay: apparent KD of MS2 coat protein; designed switch direction (-1 OFF switch, 1 ON switch): -1; higher = weaker reporter binding
Settings: input ligand: none
Hi! Could you send only the number? It should be in nM, unit omitted.

UACAUGAGGAUCACCCAUGUUUUGUCGUGUAUGGUAUUUAUCUAGGAUAUCAUAUUAUUUAUUUAUGAGAAGGAGAAUAUUAAU [JMF's solution 95] (Eterna round: R96, puzzle: Exclusion NG 3); 26.9

Kindly consider the entry below.
Entry GUUGUUUAUGUAGGAUAUGCCUGGCGUGCCUUUGCAGAAGGACAUGAGGAUCACCCAUGUAACAUGAGGCUCACCCAUGUCGCC [salish99_ExNG1_r04_108] (Eterna round: R96, puzzle: Exclusion NG 1) — recorded apparent KD of MS2 coat protein = 160

---

Test system: K4 kissing-loop RNA reporter
Assay: apparent KD of K4 kissing-loop reporter; higher = weaker reporter binding
Details: Eterna round: R107; input ligand: none
Please mark 1 if the recorded apparent KD of K4 kissing-loop reporter is equal to or greater than 100 nM, and -1 if it falls below.

Look over these answered cases.
GGUGUUGUUUGUGCUGUUUUCUUUGUUUCUCGAGGACCGGUACGGCCGCCACUCGAGUGAUGUUUGGGUAGCGAUGUUUGUUAGU [Bdazzled - #2 - Exc. Tryptophan A]; 1
CUCCAACUUGAUGAUACCAGAGAGGAGGAAGUGAUGUUGACUCCGGCUACAUACUGGCGACUCCCUUGGCAGCAUUACGUCAUCC [theeternabot_sameState_KL_Theo_B_3]; 1

Task: Answer whether apparent KD of K4 kissing-loop reporter of ACCUACCAUUAGUGAUGUUAAUGGACGGAAGGAGCGCGGAUAUCUGCAGGUAGGUCGCCGAAGGCUAGACAUUGUCUAGCCAUUA [AK1 SS Arginine A] is greater than or equal to 100 nM.
Output: 1

Task: Answer whether apparent KD of K4 kissing-loop reporter of AAGUGAUGUUGUAGUGAUGUUGUGAUGUUGCAGGAUAUAUAGUGAUGUAGAAGGGUAUGUACUUAUUUUUUAUUUGAGUUAUGUU [mmvmmullin] is greater than or equal to 100 nM.
Output: -1

Task: Answer whether apparent KD of K4 kissing-loop reporter of AAUACGAAGCAGUGAUGUUGCUUAUGAGAAGGAGCGCACGAAAGUGCAGGUAGGUCGCUCAGCCAUGUGGACGAAAACGUCCACA [whbob_SS_Arginine_A_sa109] is greater than or equal to 100 nM.
Output: -1

Task: Answer whether apparent KD of K4 kissing-loop reporter of AAUAAAAUCACGGCCGCCACUGAUUUCCAUAUUAGGAGUGAUGUUCCUAUGACUAUAUAAUUUAACAGGACCGGGUGAAUAUUUA [JR_ExcTryptoB_Sub012] is greater than or equal to 100 nM.
Output: 1

---

Test system: K4 kissing-loop RNA reporter
Assay: apparent KD of K4 kissing-loop reporter; higher = weaker reporter binding
Settings: Eterna round: R107; input ligand: theophylline 20 uM
REPORTED METRIC: apparent KD of K4 kissing-loop reporter (nM)
Hi! Could you send only the number? It should be in nM, unit omitted.

GCCGUAGAUCGAAGGAGCGUGUCCAAACCUCAUUCAUGUACACACGAGUGAUGUUCGUGUACACAGGUAGGUCGCGAUCUACGGC [#04 K4 Arginine B Exclusion]; 294
CUACAUGCACAGGAGUGAUGUUUAUGGGCUCGAGGACCGGUACGGCCGCCACUCGUUAUGGCACGCAGUAGAUAUAGGCGAGGAA [theeternabot_sameState_KL_Trp_A_41]; 448
UCUGUUGUAUAUGAUACCAGCAGUGAGAGACAGGAAGUAUAGUGAUGUUAUAUGAGAGAAUGCCCUUGGCAGCGUGUGCGGGUGG [SSTheophylB.X]; 116

Response field apparent KD of K4 kissing-loop reporter (K4 kissing-loop RNA reporter) for item UGUAUGGACUGAAGGAGCGGUAGAUAAACUGAGUGAUGUUCGGCAAAUAAAGGCGCAAGCCACCAGGUAGGUCGCAGUCCAUACU [KL-SSArg B1] : 236

Response field apparent KD of K4 kissing-loop reporter (K4 kissing-loop RNA reporter) for item ACGUAGUACGUAGGAUAUCAGAGAUCAGUUAGUGAGAUCGAGUGAUGUUCGAUCAUGUGUUCAUUUUGAGAAGGAUGUAGUAGGA [KL-SSFMN-B6] : 358

Response field apparent KD of K4 kissing-loop reporter (K4 kissing-loop RNA reporter) for item UCGUCUGUGUGAGGAUAUCCAAGCGAGCUGCGUACAGGUGCGGCGUUUGGAGUGAUGUUCCAGGCAGGAGAAGGCGCACGGGCUU [Esored] : 285

---

Tested on: MS2 coat protein
Test: apparent KD of MS2 coat protein; designed switch direction (-1 OFF switch, 1 ON switch): -1; higher = weaker reporter binding
Conditions: input ligand: microRNA oligo, concentration not stated
REPORTED METRIC: apparent KD of MS2 coat protein

ACAUCACAGCUAGGAUAUAGAUGACAUGAGGAUCACCCAUGUUAUCCCAUGUUGACGAAAACCGACUAGAAGGAGCUACAGAUG [Ex NG2 #6] (Eterna round: R96, puzzle: Exclusion NG 2); 40.2 nM

Response field apparent KD of MS2 coat protein (MS2 coat protein) for item ACAUGAGGAUCACCCAUGUGAAAACAAUGGCUGACUUUGAGACAGGAUAUAGGUGCAUAUCAAACCUAGAAGGGUCAUUACUGG [Deportation 93 - Jieux - Exclusion NG 3] (Eterna round: R96, puzzle: Exclusion NG 3) : 31.6 nM

---

System: MS2 coat protein
Test: apparent KD of MS2 coat protein; higher = weaker reporter binding
Conditions: Eterna round: R107; input ligand: theophylline 20 uM
Please mark 1.0 if the recorded apparent KD of MS2 coat protein is equal to or greater than 0.06 µM, and 0.0 if it falls below.

Look over these answered cases.
GGAUAGGACAGAAGGAGCGACAUGAGGAUCACCCAUGUCUACCACGUCGAAAGACGCUCAUGUCAGGUAGGUCGCUGUCCUAUCG [ArgXB 9 #StaticStem #MS2LeftOffAptamer]; 1.0
GGCACCAGGAGAAGGAGCGUGAAGACAUGAGGAUCACCCAUGUAGAGGCCCGUACCGGGUUCGCAGGUAGGUCGCUCCUGGUGCC [#1 Same State - Arginine B Attempt #14 (HarryS)]; 0.0
ACACAUGAGGAUCACCCAUGUGCAAUAGAUACCAGUGACGCGGUGCACCCUUGGCAGCUGUUGCUGAGUGAUGGUUCCCUCGGAA [Exclusion Theophylline A GF 6]; 0.0

Task: Answer whether apparent KD of MS2 coat protein of GCUGUAAGUGCAGAUACCAGCAGGUGAUAUUUCUAAUGACAUGAGGAUCACCCAUGUAACUGCCCUUGGCAGCUGCACUUACAGC [SSTHB #8] is greater than or equal to 0.06 µM.
Output: 0.0

Task: Answer whether apparent KD of MS2 coat protein of ACGAACUGUAGUGAUACCAGACACACAUGAGGAUCACCCAUGUUGUUAGCAUGGUGAAUAGUCCCUUGGCAGCACAGUUAGUUCG [#12 Exclusion-TheophyllineB] is greater than or equal to 0.06 µM.
Output: 1.0

Task: Answer whether apparent KD of MS2 coat protein of UCACAUGAGGAUCACCCAUGUACAGGCGAUACCAGCCGUACAUUGGGCCCUUGGCAGCGCACCGAGACCUUUAUAAGCACCUCGG [Zaoranorre] is greater than or equal to 0.06 µM.
Output: 1.0

---

System: MS2 coat protein
Assay: apparent KD of MS2 coat protein; designed switch direction (-1 OFF switch, 1 ON switch): -1; higher = weaker reporter binding
Conditions: Eterna round: R95; input ligand: microRNA oligo, concentration not stated
REPORTED METRIC: apparent KD of MS2 coat protein (nM)
Hi! Could you send only the number? It should be in nM, unit omitted.

Entry CUUUAGUGAGGAUAUCAGUAGUAAUACAAUAGUAUUACUACUGAGAAGGCACAUGAGGAUCACCCAUGUUUCUC [Mat - Exclusion 4 - Mod of Omei - D78] (puzzle: Exclusion 4) — recorded apparent KD of MS2 coat protein = 28

Entry AGGUAACAUGAGGAUCACCCAUGUCAGGAUAUCAUAAAGAUUAGAUUAGAGAAGAGGUUGAGAAGGGACUAUAU [Excluse me! 17- Jieux - Exclusion 1] (puzzle: Exclusion 1) — recorded apparent KD of MS2 coat protein = 41.9

Entry AUGUAGUAAGGAUAUAGAAAGAAGGAGUAAGAUAGAGAGUUCUAGAAGGUACAUGAGGAUCACCCAUGUUGGAG [JR_Exclu4_Sub081] (puzzle: Exclusion 4) — recorded apparent KD of MS2 coat protein = 22.2

---

Tested on: K4 kissing-loop RNA reporter;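 further: bound reporter read as fluorescence of individual clusters on recovered sequencing chips by microscopy, with normalized cluster intensities fitted with a binding model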
Assay: apparent KD of K4 kissing-loop reporter; higher = weaker reporter binding
Conditions: Eterna round: R107; input ligand: FMN 200 uM
Please mark Satisfied if the recorded apparent KD of K4 kissing-loop reporter is equal to or greater than 500 nM, and Not satisfied if it falls below.

Look over these answered cases.
AGACUUCACCGAAGGAGCGACGUGGCCUAGUGAUGUUAGGUACGAGAGAAAUCUCGUAUACGUCAGGUAGGUCGCGGUGAAGUCA [Omei KL Arginine B SS C v8]; Satisfied
AUUAUAUAGGCGGCCGCCACUAGUGAUGUUAGUGACUUUAUGAAAACAUAAAGAAUAAAAUAAUAUAGGACCGGGCCAUAAUAUU [AstrosExTryB#5]; Not satisfied

Task: Answer whether apparent KD of K4 kissing-loop reporter of GCCGUACGCAUGGAUACCAGUCUACAUCGCAGUGAUGUUGCGUAGUUCAGAUAGAUUGCCGACCCUUGGCAGCCAUGCGUACGGC is greater than or equal to 500 nM.
Output: Not satisfied

Task: Answer whether apparent KD of K4 kissing-loop reporter of UCAUGUGCCAGUGAUGUUGGCGUACGUGAUACCAGACGAAUAAAAGUCCCUUGGCAGCACAAAUAAGCCAAGAUAGAUGAAUGAU [Exclusion Theophylline A GF 1] is greater than or equal to 500 nM.
Output: Not satisfied

Task: Answer whether apparent KD of K4 kissing-loop reporter of UGUCAUUGGUCGGCCGCCACUAGAAGGUCAAAGACCAUGGAGUGAUGUUCUAAGACGAAAGUCACUAGGACCGGGACCGAUGACU [TrypBS 5 #SwitchBubble #K4Middle] is greater than or equal to 500 nM.
Output: Satisfied

Task: Answer whether apparent KD of K4 kissing-loop reporter of UGUAUGGACUGAAGGAGCGGUAUAUAAACUGAGUGAUGUUCGGCAGAUAAAGGCGCAAGCCACCAGGUAGGUCGCAGUCCAUACU [KL-SSArg B2] is greater than or equal to 500 nM.
Output: Not satisfied

Task: Answer whether apparent KD of K4 kissing-loop reporter of AAGACUUGCAUCGAUACCAGCCCAGUGAUGUUGGGCUGCUCUCCAUGGGUGCCAGACACGGGCCCUUGGCAGCGAGGUAAGGCCC [Soveri] is greater than or equal to 500 nM.
Output: Not satisfied

Data provenance is the supplement of paper PMC9170038.
